Biological target: T1, PACE4, P29122
T1 chain: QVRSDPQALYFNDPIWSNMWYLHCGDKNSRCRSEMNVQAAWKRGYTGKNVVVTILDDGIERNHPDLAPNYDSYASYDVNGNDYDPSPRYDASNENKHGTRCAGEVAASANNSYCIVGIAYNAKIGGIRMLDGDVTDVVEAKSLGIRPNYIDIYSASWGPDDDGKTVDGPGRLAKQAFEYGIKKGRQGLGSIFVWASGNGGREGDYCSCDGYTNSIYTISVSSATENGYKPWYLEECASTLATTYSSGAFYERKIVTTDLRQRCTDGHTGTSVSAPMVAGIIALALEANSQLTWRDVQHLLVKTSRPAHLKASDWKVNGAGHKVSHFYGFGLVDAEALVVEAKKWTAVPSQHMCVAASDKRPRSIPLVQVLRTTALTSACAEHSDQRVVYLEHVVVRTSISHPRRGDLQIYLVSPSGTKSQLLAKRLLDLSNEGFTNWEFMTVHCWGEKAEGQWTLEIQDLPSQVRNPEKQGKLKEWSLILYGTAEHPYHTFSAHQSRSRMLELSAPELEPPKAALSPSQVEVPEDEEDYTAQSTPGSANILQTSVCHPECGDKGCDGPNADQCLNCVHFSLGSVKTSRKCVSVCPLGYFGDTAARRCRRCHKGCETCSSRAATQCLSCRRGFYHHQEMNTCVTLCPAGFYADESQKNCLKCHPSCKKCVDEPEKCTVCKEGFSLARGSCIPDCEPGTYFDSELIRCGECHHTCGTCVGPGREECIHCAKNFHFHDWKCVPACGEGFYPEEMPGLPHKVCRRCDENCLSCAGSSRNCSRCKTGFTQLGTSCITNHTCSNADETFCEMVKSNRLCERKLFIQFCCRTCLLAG
Settings: modification not given
valueKind: pKi
Scale note: pKi = -log10(concentration in M).

Provide pKi value for the following binder: RRRRRR [Hexa-L-arginine]
6.28
